- TARGET_OF_ASSAY: Cyclin-dependent kinase 5/CDK5 activator 1 (Homo sapiens, UniProt Q00535)
- Sequence (Q00535 whole entry): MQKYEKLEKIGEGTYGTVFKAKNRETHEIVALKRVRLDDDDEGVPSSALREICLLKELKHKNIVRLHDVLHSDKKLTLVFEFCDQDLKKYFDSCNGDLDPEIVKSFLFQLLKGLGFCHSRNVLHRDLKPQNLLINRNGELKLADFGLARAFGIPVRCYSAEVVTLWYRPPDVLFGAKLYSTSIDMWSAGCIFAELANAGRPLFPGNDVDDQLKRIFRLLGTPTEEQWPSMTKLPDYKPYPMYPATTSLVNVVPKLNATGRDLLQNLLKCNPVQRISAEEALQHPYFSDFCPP
- Sequence (Q15078 whole entry, further chain): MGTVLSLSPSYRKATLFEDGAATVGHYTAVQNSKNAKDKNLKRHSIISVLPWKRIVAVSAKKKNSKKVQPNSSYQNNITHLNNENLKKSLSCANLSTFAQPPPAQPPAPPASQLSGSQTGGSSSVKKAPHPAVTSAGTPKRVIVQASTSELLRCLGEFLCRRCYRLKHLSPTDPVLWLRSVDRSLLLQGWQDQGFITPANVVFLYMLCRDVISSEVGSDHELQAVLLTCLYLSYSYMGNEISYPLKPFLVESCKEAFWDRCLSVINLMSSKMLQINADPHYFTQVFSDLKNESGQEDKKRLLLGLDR
- RUN_DESCRIPTION: Inhibition of human CDK5/p25 expressed in CHO cells after 2 hrs by whole cell assay
- Type: cell-based
pIC50: −log10 of the molar value.
MEASURE_NAME: pIC50

Cc1cccc(C(=O)N[C@H]2C[C@@H](n3cnc(NC(=O)Cc4cccc5ccccc45)c3)C2)n1 : 6.64

P = O=C(Cc1cccc2ccccc12)Nc1cn([C@H]2C[C@@H](NC(=O)c3ccccn3)C2)cn1
Q = O=C(Cc1cccc2ccccc12)Nc1cn([C@H]2C[C@@H](NC(=O)c3cccc(Cl)n3)C2)cn1
Could you tell me which of these two has the smaller pIC50 figure? First: P Second: Q Refer to your chosen entry by its label in the reply. P
(P: 5.89, Q: 6.17)

###

- RUN_DESCRIPTION: Plasma concentration in MDR1A/1B knockout mouse at 2 mg/kg, sc after 1 hr
- Format: ADME, organism-based
- Set-up: dose 2 mg/kg, route subcutaneous
MEASURE_NAME: concentration at 1 h (ng/mL)
Reply numerically in ng/mL, unit not repeated.

Return the recorded concentration at 1 h value; entry: Cc1cccc(C(=O)N[C@H]2C[C@@H](n3cnc(NC(=O)Cc4cccc5ccccc45)c3)C2)n1 336

###

- RUN_DESCRIPTION: Drug level in FV/B mouse brain at 2 mg/kg, sc after 1 hr
- Assay type: ADME, organism-based
- Parameters: dose 2 mg/kg, route subcutaneous
- EXPERIMENTAL_SETUP: read-out: Drug uptake
MEASURE_NAME: concentration at 1 h (ng/g)
Your answer should be a plain number; it is taken to be in ng/g.

Tell us which concentration at 1 h value is on record for Cc1cccc(C(=O)N[C@H]2C[C@@H](n3cnc(NC(=O)Cc4cccc5ccccc45)c3)C2)n1 34

###

- RUN_DESCRIPTION: Plasma concentration in FV/B mouse at 2 mg/kg, sc after 1 hr
- Type: ADME, organism-based
- Set-up: dose 2 mg/kg, route subcutaneous
MEASURE_NAME: concentration at 1 h (ng/mL)
Entry rule: numbers only, all in ng/mL.

Note down concentration at 1 h recorded for Cc1cccc(C(=O)N[C@H]2C[C@@H](n3cnc(NC(=O)Cc4cccc5ccccc45)c3)C2)n1 280
